CC50 by entry:
- assay_info: Anti-metabolic effect on host cell metabolism (MTS method) in Huh 5-2 replicon cells
- Type: cell-based
- stated_conditions: human, Huh 5-2 cells (HCV genotype 1b subgenomic replicon), concentration reducing host cell metabolism by 50%, average of triplicate determinations
measurement_type: CC50 (µM)

>>> recorded_result("Nc1nc2c(nc(SCc3cc4cc(F)ccc4oc3=O)n2[C@@H]2O[C@H](CO)[C@@H](O)[C@H]2O)c(=O)[nH]1 [Compound 11b]")
102
>>> recorded_result("COc1cccc2cc(CSc3nc4c(=O)[nH]c(N)nc4n3[C@@H]3O[C@H](CO)[C@@H](O)[C@H]3O)c(=O)oc12 [Compound 11e]")
99
>>> recorded_result("COc1cccc2cc(CSc3nc4c(=O)[nH]cnc4n3[C@@H]3O[C@H](CO)[C@@H](O)[C@H]3O)c(=O)oc12")
102

Where do the numbers come from? From paper PMC6273635.
